species: Rattus norvegicus; test: DrugMatrix - Regimen: Daily Repeat; type: toxicity, organism-based, Sprague-Dawley; design: regimen Daily Repeat, gender Male, age 6-8 weeks; details: in vivo, po, 80 mg/kg, 120 h, tissue Blood, route oral GAVAGE, dose level Low, time 5 day, vehicle .5 % CMC
assayEndpoint: ABSOLUTE SEGMENTED NEUTROPHIL (cells/µL)
// units = cells/µL; emit number, no label

Looking for the measured ABSOLUTE SEGMENTED NEUTROPHIL of "O=c1cc(-c2ccccc2)oc2ccc3ccccc3c12" , can you help?
1430

* * *

species on record: Rattus norvegicus; format: toxicity, organism-based, Sprague-Dawley; settings: in vivo, po, 15 mg/kg, 24 h, tissue Blood, route oral GAVAGE, dose level High, time 1 day, […]
Description: DrugMatrix - Regimen: Single
assayEndpoint: ABSOLUTE BASOPHIL (cells/µL)
// units = cells/µL; emit number, no label

Looking for the measured ABSOLUTE BASOPHIL of CC(CCc1ccc(O)cc1)NCCc1ccc(O)c(O)c1 (stereo unspecified) , can you help?
16.7

* * *

species on record: Rattus norvegicus; experiment: DrugMatrix - Regimen: Daily Repeat; type: toxicity, organism-based, Sprague-Dawley; parameters: regimen Daily Repeat, gender Male, age 6-8 weeks; conditions: in vivo, po, 0 mg/kg, 72 h, tissue Plasma, route oral GAVAGE, dose level Control, time 3 day, vehicle 100 % WATER
assayEndpoint: PHOSPHORUS (mg/dL)
// units = mg/dL; emit number, no label

1) CN1C2CCCC1CC(NC(=O)c1nn(C)c3ccccc13)C2 (centres undefined)	11.18

Looking for the measured PHOSPHORUS of "Nc1ccc(S(=O)(=O)Nc2ncccn2)cc1" , can you help?
11.42

Same question, "OCCO" this time
9.75

Same question, "O=C(O)c1cccnc1" this time
14.27

Same question, "CCCc1nn(C)c2c(=O)[nH]c(-c3cc(S(=O)(=O)N4CCN(C)CC4)ccc3OCC)nc12" this time
9.75

Same question, O=P1(N(CCCl)CCCl)NCCCO1 (centres undefined) [CYCLOPHOSPHAMIDE ANHYDROUS] this time
10.78

Same question, "Nc1ccc(S(=O)(=O)Nc2nccs2)cc1" this time
11.18

Same question, "CNS(=O)(=O)Cc1ccc2[nH]cc(CCN(C)C)c2c1" this time
11.95

Same question, "CCOC(N)=O" this time
11.8

* * *

This section presents compounds with their documented CREATINE PHOSPHOKINASE values.
organism: Rattus norvegicus; experiment: DrugMatrix - Regimen: Daily Repeat; format: toxicity, organism-based, Sprague-Dawley; design: regimen Daily Repeat, gender Male, age 6-8 weeks; details: in vivo, po, 0 mg/kg, 120 h, tissue Plasma, route oral GAVAGE, dose level Control, time 5 day, vehicle 100 % WATER
// units = u/L; emit number, no label

Before answering, review these 10 worked examples.
1) O=C(O)c1cc(=O)c2c(OCC(O)COc3cccc4oc(C(=O)O)cc(=O)c34)cccc2o1 [CROMOLYN]	154.83
2) Nc1ccc(S(=O)(=O)Nc2ncccn2)cc1 [SULFADIAZINE]	130.67
3) Cc1c(N(C)CS(=O)(=O)[O-])c(=O)n(-c2ccccc2)n1C.[Na+] [DIPYRONE SODIUM]	363.67
4) CC[C@H]1OC(=O)[C@H](C)[C@@H](O[C@H]2C[C@@](C)(OC)[C@@H](O)[C@H](C)O2)[C@H](C)[C@@H](O[C@@H]2O[C@H](C)C[C@H](N(C)C)[C@H]2O)[C@](C)(OC)C[C@@H](C)C(=O)[C@H](C)[C@@H](O)[C@]1(C)O [CLARITHROMYCIN]	266.5
5) O=P1(N(CCCl)CCCl)NCCCO1 (configuration not stated) [CYCLOPHOSPHAMIDE ANHYDROUS]	237.17
6) CC[C@H]1OC(=O)[C@H](C)[C@@H](O[C@H]2C[C@@](C)(OC)[C@@H](O)[C@H](C)O2)[C@H](C)[C@@H](O[C@@H]2O[C@H](C)C[C@H](N(C)C)[C@H]2O)[C@](C)(O)C[C@@H](C)CN(C)[C@H](C)[C@@H](O)[C@]1(C)O [AZITHROMYCIN]	358.67
7) CC(C)(C)NC[C@H](O)COc1nsnc1N1CCOCC1 [TIMOLOL]	248.33
8) CCN(CC)CC#CCOC(=O)C(O)(c1ccccc1)C1CCCCC1 (configuration not stated) [OXYBUTYNIN]	518.5
9) CCCCCCCCCCCCCCCC[n+]1ccccc1.[Br-]	268.33
10) CN1C2CCCC1CC(NC(=O)c1nn(C)c3ccccc13)C2 (configuration not stated) [GRANISETRON]	248.33

Looking for the measured CREATINE PHOSPHOKINASE of "CCCc1nn(C)c2c(=O)[nH]c(-c3cc(S(=O)(=O)N4CCN(C)CC4)ccc3OCC)nc12" , can you help?
253.33

Same question, O=C(O)c1cccnc1 [NIACIN] this time
771.33
